Provenance of the data: the supplement of paper PMC10567573

B1: ZBED1 (parent)
chain: EQVFSLGDGVSGGFFGIRDSSFL

- Variants of: B1
- assay_explanation: protein stability index of a GFP-peptide fusion (GPS, HEK-293T) (PSI 1-6); higher = more stable;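 further: lentivirally expressed fusions sorted by FACS into six bins by GFP to DsRed ratio, PSI derived from sequencing read proportions per bin multiplied by bin number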
- experimental_parameters: c terminus: native
measure_name: protein stability index

INSERT INTO measurements (mutation_string, measure_name, value_measured) VALUES
  ('E1L', 'protein stability index', 2.3),
  ('E1H', 'protein stability index', 2.45),
  ('G13P', 'protein stability index', 3.49),
  ('I17N', 'protein stability index', 4.02),
  ('V10D', 'protein stability index', 3.78),
  ('G7C', 'protein stability index', 2.61),
  ('G9R', 'protein stability index', 2.86),
  ('G12Y', 'protein stability index', 2.05),
  ('L23T', 'protein stability index', 3.33),
  ('G16L', 'protein stability index', 2.8),
  ('S11M', 'protein stability index', 2.81),
  ('R18D', 'protein stability index', 3.98),
  ('E1W', 'protein stability index', 1.62),
  ('F14N', 'protein stability index', 4.62),
  ('G7K', 'protein stability index', 3.16),
  ('Q2V', 'protein stability index', 2.17),
  ('I17Q', 'protein stability index', 4.31),
  ('G12F', 'protein stability index', 2.01),
  ('F22H', 'protein stability index', 4.5),
  ('I17S', 'protein stability index', 4.2),
  ('Q2W', 'protein stability index', 2.03),
  ('E1A', 'protein stability index', 2.52),
  ('V3H', 'protein stability index', 3.99),
  ('E1Q', 'protein stability index', 2.77),
  ('F15C', 'protein stability index', 3.64),
  ('F14P', 'protein stability index', 4.08),
  ('L6V', 'protein stability index', 3.08),
  ('D19P', 'protein stability index', 2.15),
  ('S20P', 'protein stability index', 3.73),
  ('D8G', 'protein stability index', 3.24),
  ('G16P', 'protein stability index', 2.85),
  ('I17R', 'protein stability index', 4.2),
  ('I17W', 'protein stability index', 3.52),
  ('F4Y', 'protein stability index', 3.47),
  ('V10L', 'protein stability index', 3),
  ('F14L', 'protein stability index', 3.67),
  ('G7A', 'protein stability index', 2.98),
  ('F15M', 'protein stability index', 3.82),
  ('L23N', 'protein stability index', 3.94),
  ('V10C', 'protein stability index', 3.35),
  ('S21D', 'protein stability index', 4.08),
  ('G7S', 'protein stability index', 2.94),
  ('Q2Y', 'protein stability index', 2.43),
  ('L6W', 'protein stability index', 3.01),
  ('D8S', 'protein stability index', 3.22),
  ('S21R', 'protein stability index', 3.61),
  ('L23D', 'protein stability index', 3.96),
  ('V3G', 'protein stability index', 4.03),
  ('G9W', 'protein stability index', 1.51),
  ('L6T', 'protein stability index', 3.27),
  ('Q2E', 'protein stability index', 3.88),
  ('G13H', 'protein stability index', 3.41),
  ('L23M', 'protein stability index', 3.67),
  ('L23Q', 'protein stability index', 3.98),
  ('V3I', 'protein stability index', 2.9),
  ('L6Y', 'protein stability index', 3.42),
  ('S11P', 'protein stability index', 2.76),
  ('S11W', 'protein stability index', 2.39),
  ('G7Q', 'protein stability index', 3.46),
  ('S21C', 'protein stability index', 2.77),
  ('V3W', 'protein stability index', 2.55),
  ('D8T', 'protein stability index', 2.91),
  ('S11I', 'protein stability index', 2),
  ('F22I', 'protein stability index', 3.04),
  ('F22V', 'protein stability index', 3.35),
  ('R18K', 'protein stability index', 3.96),
  ('V10N', 'protein stability index', 3.8),
  ('G16Y', 'protein stability index', 2.29),
  ('G9V', 'protein stability index', 3.09),
  ('G16F', 'protein stability index', 1.91),
  ('S21V', 'protein stability index', 1.74),
  ('L23E', 'protein stability index', 4.54),
  ('G12V', 'protein stability index', 2.45),
  ('D19H', 'protein stability index', 2.19),
  ('G9I', 'protein stability index', 2.47),
  ('S11L', 'protein stability index', 3.09);
